Target: T1, vasoactive intestinal peptide (VIP) (human)
T1 construct: also called human VIP
T1 peptide: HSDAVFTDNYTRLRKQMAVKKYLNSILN
Assay: ELISA screen of B-cell culture supernatant; VIP at 100 ng/mL
Tick Met if Optical Density is 0.2 OD or greater. Tick Not met if Optical Density is less than 0.2 OD.

Consider the following illustrative entries.
- binder: "mAb5 (antibody, V domains shown, Rabbit monoclonal antibody (SLAM), recombinant; also called monoclonal anti-PACAP antibody 5; 5 (c71)) VH: QSVEESGGRLVTPGTPLTLTCTVSGFSLSTYNMCWVRQAPGKGLEWVGFINSDDSAYYASWAKGRFTFSKTSTTVDLKIASPTTEDTATYFCARYDWDYYYSRLDLWGPGTLVTVSS VL: DIVLTQTPASVSAAVGGTVSISCQSSESVYNNNYLSWFQQKPGQPPKLLIYGASTLASGVPSRFEGSGSGTQFTLTISDVQCDDAATYYCLGDYIIIENIFGGGTEVVVKG"
  assigned.category: "Not met"
- binder: "mAb4 (antibody, V domains shown, Rabbit monoclonal antibody (SLAM), recombinant; also called monoclonal anti-PACAP antibody 4; 4 (c47)) VH: QSVEESGGRLVTPGTPLTLTCTASGIDLSSYAMIWVRQAPGEGLEYIGFIDAGDGNTYYASWAKGRFTISKTSTTVDLKITSPTTEDTATYFCARGDPGWSNGFALWGQGTLVTVSS VL: DIVMTQTPASVSGAVGGTVTIKCQASQSIRNELSWYQQKPGQPPKLLIYKASTLASGVPSRFSGSGFGTEFTLTISGVQCDDAATYYCQNNYGTRRNNYVFPFGGGTEVVVKG"
  assigned.category: "Met"
- binder: "mAb1 (antibody, V domains shown, Rabbit monoclonal antibody (SLAM), cloned, recombinantly expressed and purified; also called monoclonal anti-PACAP antibody 1; 1 (c20)) VH: QSLEESGGDLVKPGASLTLTCKASGIAFSNDYMCWVRQAPGKGLEWIACIFTGSSGSTYYASWAKGRFTISKTSSTTVTLQMTSLTAADTATYFCARDRAISVLGYFYAAYFFDFWGPGTLVTVSS VL: DVVMTQTPSPVSAAVGGTVTINCRASEDIESFLAWYQQKPGQPPKLLISRTSTLESGVSSRFKGSGSGTEFILTISDLECADAATYYCQCTDGSSSSSSYGWDAFGGGTEVVVKG"
  assigned.category: "Not met"
- binder: "mAb6 (antibody, V domains shown, Rabbit monoclonal antibody (SLAM), recombinant; also called monoclonal anti-PACAP antibody 6; 6 (c55)) VH: QLEESGGGLVQPGASLTLTCTTSGFSLSDNYLCWVRQAPGRGLEWVACIGIVLRSTGATYYASWAEGRFTISKTSPTTVTLEMTSLTAADTATYFCALDLGYGGPLWGPGTLVTVSS VL: AQVLTQTPASVSAAVGGTVTINCQASQSVYNNKNLAWYQQKPGQPPKLLIYFSSTLASGVPSRFRGSGSGTQFTLTISGVQCGDAATYYCLGEFGSIWAFGGGTEVVVKG"
  assigned.category: "Met"
- binder: "mAb2 (antibody, V domains shown, Rabbit monoclonal antibody (SLAM), recombinant; also called monoclonal anti-PACAP antibody 2; 2 (c81)) VH: QSLEESGGGLVQPEGSLTLTCTASGFSFNSSSYMCWVRQAPGKGLEWIGCIFTGSSGNTYYATWAQGRFTISKTSTTVTLEMTSLTAADTATYFCARDRAYFLVGYFYATYYFDLWGPGTLVTVSS VL: DVVMTQTPSPVSAQVGGTVTINCQASESIDSDLSWYQQKPGQPPKLLIYRTFTLESGVPSRFKGSGSGTDYTLTISDLECADAAIYYCQCTDGSSISGSYGWDAFGGGTEVVVKG"
  assigned.category: "Not met"

Now let's try a different one.
Request: Would you say mAb3 (antibody, V domains shown, Rabbit monoclonal antibody (SLAM), recombinant; also called monoclonal anti-PACAP antibody 3; 3 (c89)) VH: QSLEESGGGLVQPGASLTLTCTASGFSFSSNYYMCWVRQAPGKGLEWIACIFTGSSGSTYYASWAKGRFTISKTSSTTVTLHVTSLTAADTATYFCARDRALSVVGYFYAAYYFDFWGPGTLVTVSS VL: DVVMTQTPSPVSAAVGGTVTINCRASEDIESFLAWYQQKPGQPPKLLMSRTSTLESGVPSRFKGSGSGTEFTLTISDLECADAATYYCQCTDGSSSSSSYGWDAFGGGTEVVVKG shows Optical Density at minimum 0.2 OD?
Result: Not met
